Biological target: T1, human IL-10 receptor (hIL-10R alpha and beta chains) on HEK-Blue IL-10 reporter cells (human, UniProt Q13651 22-578; Q08334 20-325)
T1 sequence 1: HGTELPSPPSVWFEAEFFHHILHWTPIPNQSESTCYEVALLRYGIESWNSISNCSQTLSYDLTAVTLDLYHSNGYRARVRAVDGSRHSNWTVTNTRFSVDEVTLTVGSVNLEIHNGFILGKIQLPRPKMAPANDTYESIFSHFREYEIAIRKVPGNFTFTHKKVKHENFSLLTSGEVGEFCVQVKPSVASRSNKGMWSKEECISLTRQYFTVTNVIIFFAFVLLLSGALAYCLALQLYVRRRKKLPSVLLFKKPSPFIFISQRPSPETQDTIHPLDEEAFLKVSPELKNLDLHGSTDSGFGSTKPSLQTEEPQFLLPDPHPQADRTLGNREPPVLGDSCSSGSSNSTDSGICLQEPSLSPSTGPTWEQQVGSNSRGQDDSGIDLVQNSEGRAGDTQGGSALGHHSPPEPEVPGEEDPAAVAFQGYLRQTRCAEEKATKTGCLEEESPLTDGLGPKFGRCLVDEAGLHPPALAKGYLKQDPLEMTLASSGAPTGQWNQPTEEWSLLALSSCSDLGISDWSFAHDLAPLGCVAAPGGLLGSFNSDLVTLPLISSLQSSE
T1 sequence 2: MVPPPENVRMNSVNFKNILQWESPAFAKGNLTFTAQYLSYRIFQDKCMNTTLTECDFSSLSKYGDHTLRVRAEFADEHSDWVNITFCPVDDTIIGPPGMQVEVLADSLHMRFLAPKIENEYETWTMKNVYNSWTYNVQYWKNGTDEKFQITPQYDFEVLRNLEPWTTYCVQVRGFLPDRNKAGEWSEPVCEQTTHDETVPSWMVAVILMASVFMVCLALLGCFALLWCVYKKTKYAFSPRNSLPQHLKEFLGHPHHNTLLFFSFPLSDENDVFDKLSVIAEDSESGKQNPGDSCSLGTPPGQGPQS
Assay: cell-based or functional assay
recorded.metric: Abs 630 (100 nM) (Abs 630)
Answers are plain numbers, in Abs 630.

# Abs 630 (100 nM) of IL10R binding molecule of SEQ ID NO: 343 (bispecific antibody) QVQLQESGGGSVQAGGSLRLSCAASGYSYSSYCMGWFRQAPGKEREGVATIDSDGMTRYADSVKGRFTISKDNAKNTLYLQMNSLKPEDTAMYYCAAPLYDCDSGAVGRNPPYWGQGTQVTVSSGGGSQVQLQESGGGSVQAGGSLRLSCAVSGYAYSTYCMGWFRQAPGKEREGVAAIDSGGSTSYADSVKGRFTISKDNAKNTLYLRMNSLKPEDTAMYYCAAVPPPPDGGSCLFLGPEIKVSKADFRYWGQGTQVTVSSASHHHHHH = 0.37
